# pIC50 values compiled below
- System: P. falciparum strain F32-ART (artemisinin-resistant)
- Assay method text: microbe, parasite or virus in culture
- Assay type: cell-based, Plasmodium falciparum
- Measurement context: Plasmodium falciparum, F32, read-out: Antiplasmodial IC50, strain F32-ART
pIC50: −log10 of the molar value.

Molecule: CC(ON1C(C)(C)CCCC1(C)C)c1ccc(NC(=O)[C@H](Cc2ccccc2)NC(=O)[C@@H](NC(=O)[C@H](Cc2ccccc2)NC(=O)OC(C)(C)C)C(C)C)cc1 (stereo partly drawn) [A3L, Boc-Phe-Val-Phe-anilide-TEMPO]
Target system: P. falciparum strain F32-ART (artemisinin-resistant)
pIC50: 6.57
--
Molecule: CC(ON(C(C)(C)C)C(C)(C)C)c1ccc(NC(=O)[C@H](Cc2ccccc2)NC(=O)[C@@H](NC(=O)[C@H](Cc2ccccc2)NC(=O)OC(C)(C)C)C(C)C)cc1 (some centres unmarked)
Target system: P. falciparum strain F32-ART (artemisinin-resistant)
pIC50: 6.52
